Assay: AUC (0 to last) in ICR mouse liver at 80 mg/kg, po administered as single dose
Assay type: ADME, organism-based
Design: dose 80 mg/kg, route oral, time 0 - last
Recorded AUC(0-t) by entry
Output spec: scalar in µg·h/mL, unitless text.

CCN(CC)CCOc1ccc2c(=O)c3ccc(Cl)cc3[nH]c2c1
1460
CCCN(CCC)CCCOc1ccc2c(=O)c3c(F)cc(F)cc3[nH]c2c1
236
CCCCN(CCCC)CCOc1ccc2c(=O)c3c(Cl)c(Cl)ccc3[nH]c2c1
168
CCCN(CCC)CCOc1ccc2c(=O)c3c(F)cc(F)cc3[nH]c2c1
63.9
CCCN(CCC)CCOc1ccc2c(=O)c3c(Cl)c(Cl)ccc3[nH]c2c1
547

Lab note: next compound to report on.
For COc1cc(NC(C)CCCN)c2ncccc2c1 (stereo unspecified) [PRIMAQUINE] the compound record lists AUC(0-t) as 27.4

###

Experiment: Half life in mouse liver microsomes at 1 uM by LC-MS analysis
Format: ADME, Microsome
readout: half-life at 1 µM

// known answers, use as guide
CCCN(CCC)CCCOc1ccc2c(=O)c3c(F)cc(F)cc3[nH]c2c1
> 60 min
CCN(CC)CCCOc1ccc2c(=O)c3c(Cl)cc(Cl)cc3[nH]c2c1
16 min
CCN(CC)CCOc1ccc2c(=O)c3c(Cl)c(Cl)ccc3[nH]c2c1
50 min
CCCN(CCC)CCOc1ccc2c(=O)c3c(Cl)cc(Cl)cc3[nH]c2c1
> 60 min
CCCCN(CCCC)CCOc1ccc2c(=O)c3c(Cl)c(Cl)ccc3[nH]c2c1
21 min
O=c1c2ccc(OCCCl)cc2[nH]c2ccc(Cl)c(Cl)c12
> 60 min

For "O=c1c2ccc(OCCN(CCC(F)(F)F)CCC(F)(F)F)cc2[nH]c2cc(F)cc(F)c12" the molecule record lists half-life at 1 µM as 33 min

For "CCCN(CCC)CCOc1ccc2c(=O)c3ccc(Cl)cc3[nH]c2c1" the molecule record lists half-life at 1 µM as > 60 min

For "CCN(CC)CCOc1ccc2c(=O)c3ccc(F)cc3[nH]c2c1" the molecule record lists half-life at 1 µM as > 60 min

For "CCCN(CCC)CCOc1ccc2c(=O)c3c(Cl)c(Cl)ccc3[nH]c2c1" the molecule record lists half-life at 1 µM as 17 min

For "O=c1c2ccc(OCCCCl)cc2[nH]c2cc(Cl)cc(Cl)c12" the molecule record lists half-life at 1 µM as 55 min

###

Recorded Cmax by entry
Assay: Cmax in ICR mouse liver at 80 mg/kg, po administered as single dose
Type: ADME, organism-based
Set-up: dose 80 mg/kg, route oral
Output spec: scalar in ng/mL, unitless text.

// known answers, use as guide
CCCN(CCC)CCCOc1ccc2c(=O)c3c(F)cc(F)cc3[nH]c2c1
19700
COc1cc(NC(C)CCCN)c2ncccc2c1 (stereo unspecified) [PRIMAQUINE]
8150
CCCN(CCC)CCOc1ccc2c(=O)c3c(Cl)c(Cl)ccc3[nH]c2c1
42300
CCCN(CCC)CCOc1ccc2c(=O)c3c(F)cc(F)cc3[nH]c2c1
3930

For "CCN(CC)CCOc1ccc2c(=O)c3ccc(Cl)cc3[nH]c2c1" the molecule record lists Cmax as 193000

For "CCCCN(CCCC)CCOc1ccc2c(=O)c3c(Cl)c(Cl)ccc3[nH]c2c1" the molecule record lists Cmax as 21300

###

Test: Half life in human liver microsomes at 1 uM by LC-MS analysis
Assay type: ADME, Microsome
Recorded half-life at 1 µM by entry

For "CCCCN(CCCC)CCOc1ccc2c(=O)c3c(Cl)c(Cl)ccc3[nH]c2c1" the compound record lists half-life at 1 µM as 12 min

For "CCN(CC)CCOc1ccc2c(=O)c3c(Cl)c(Cl)ccc3[nH]c2c1" the compound record lists half-life at 1 µM as > 60 min

For "CCN(CC)CCOc1ccc2[nH]c3cc(Cl)ccc3c(=O)c2c1" the compound record lists half-life at 1 µM as > 60 min

For "CCCN(CCC)CCOc1ccc2c(=O)c3c(F)cc(F)cc3[nH]c2c1" the compound record lists half-life at 1 µM as 16 min

For "CC(C)(C)NCCCCOc1ccc2c(=O)c3c(F)cc(F)cc3[nH]c2c1" the compound record lists half-life at 1 µM as > 60 min

For "CCCN(CCC)CCOc1ccc2c(=O)c3c(Cl)cc(OC)cc3[nH]c2c1" the compound record lists half-life at 1 µM as 7 min

For "CCN(CC)CCOc1ccc2c(=O)c3ccc(Br)cc3[nH]c2c1" the compound record lists half-life at 1 µM as > 60 min

###

System: Plasmodium falciparum
Experiment: Inhibition of Plasmodium falciparum cytochrome b-c1
Active and inactive are the calls of the source. The rule behind the calls is not given here.
readout: inhibition

// known answers, use as guide
CCN(CC)CCOc1ccc2c(=O)c3c(F)cc(F)cc3[nH]c2c1
inactive
CCCCN(CCCC)CC(O)c1cc(Cl)cc2c1-c1ccc(Cl)cc1/C2=C/c1ccc(Cl)cc1 (stereo not given) [LUMEFANTRINE]
inactive
CCN(CC)CCCC(C)Nc1c2ccc(Cl)cc2nc2ccc(OC)cc12 (stereo not given) [QUINACRINE]
inactive
CN1CCCC1CCOc1ccc2c(=O)c3c(Cl)c(Cl)ccc3[nH]c2c1 (stereo not given)
inactive

Lab note: next compound to report on.
For "CCCCN(CCCC)CCOc1ccc2c(=O)c3c(Cl)c(Cl)ccc3[nH]c2c1" the compound record lists inhibition as inactive

###

Tested on: Plasmodium falciparum
Assay: Antimalarial activity against drug-resistant Plasmodium falciparum Dd2 harboring V259L mutant infected in human erythrocytes after 72 hrs by SYBR green 1-based fluorescence assay
Format: functional, organism-based
Conditions: Dd2, 72 h
Recorded IC50 by entry
Output spec: scalar in nM, unitless text.

CCN(CC)CCOc1ccc2c(=O)c3c(F)cc(F)cc3[nH]c2c1
525
O=c1c2ccc(OCCCCl)cc2[nH]c2ccc(Cl)c(Cl)c12
551
C=C[C@H]1CN2CC[C@H]1C[C@H]2[C@H](O)c1ccnc2ccc(OC)cc12 [QUININE]
215
CC(C)(C)NCCOc1ccc2c(=O)c3c(Cl)c(Cl)ccc3[nH]c2c1
3070
CCN(CC)CCOc1ccc2c(=O)c3ccc(Cl)cc3[nH]c2c1
2120

For "CCN(CC)CCOc1ccc2c(=O)c3c(Cl)c(Cl)ccc3[nH]c2c1" the compound record lists IC50 as 1440

For CN1CCCC1CCOc1ccc2c(=O)c3c(Cl)c(Cl)ccc3[nH]c2c1 (stereo not given) the compound record lists IC50 as 3110

For CCN(CC)CCCC(C)Nc1c2ccc(Cl)cc2nc2ccc(OC)cc12 (stereo not given) [QUINACRINE] the compound record lists IC50 as 18

For "O=c1c2ccc(OCCNC34CC5CC(CC(C5)C3)C4)cc2[nH]c2ccc(Cl)c(Cl)c12" the compound record lists IC50 as 1100

For "CCN(CC)CCOc1ccc2[nH]c3cc(Cl)ccc3c(=O)c2c1" the compound record lists IC50 as 355

###

Assay: Selectivity index, ratio of IC50 for human HepG2 cells to IC50 for chloroquine-sensitive Plasmodium falciparum D6 infected in human erythrocytes
Type: toxicity, cell-based
Settings: read-out: Ratio IC50
Would you please tag the item 1 (yes) when its selectivity ratio is 1000 or above, and 0 (no) when it is below?

Take a look at these entries with their results.
CCCN(CCC)CCOc1ccc2c(=O)c3c(Cl)c(Cl)ccc3[nH]c2c1
1 (yes)
CC(C)(C)NCCCCOc1ccc2c(=O)c3c(F)cc(F)cc3[nH]c2c1
1 (yes)
O=c1c2ccc(OCCCCl)cc2[nH]c2cc(F)cc(F)c12
1 (yes)
CCN(CC)CCOc1ccc2c(=O)c3ccc(Cl)c(Cl)c3[nH]c2c1
0 (no)
CCN(CC)CCOc1ccc2c(=O)c3c(Cl)c(Cl)ccc3[nH]c2c1
1 (yes)

Query block: Dear colleague, could you confirm whether "CCCN(CCC)CCOc1ccc2c(=O)c3ccc(Cl)cc3[nH]c2c1" has selectivity ratio at or above 1000?
Result block: 1 (yes)

Query block: Dear colleague, could you confirm whether "O=c1c2ccc(OCCCl)cc2[nH]c2cc(Cl)cc(Cl)c12" has selectivity ratio at or above 1000?
Result block: 1 (yes)

Query block: Dear colleague, could you confirm whether "CCCN(CCC)CCOc1ccc2[nH]c3cc(OC)cc(Cl)c3c(=O)c2c1" has selectivity ratio at or above 1000?
Result block: 1 (yes)

Query block: Dear colleague, could you confirm whether "O=c1c2ccc(OCCCCl)cc2[nH]c2ccc(Cl)cc12" has selectivity ratio at or above 1000?
Result block: 1 (yes)

Query block: Dear colleague, could you confirm whether "CCCCCCOc1ccc2c(=O)c3c(F)cc(F)cc3[nH]c2c1" has selectivity ratio at or above 1000?
Result block: 1 (yes)

Query block: Dear colleague, could you confirm whether "CCN(CC)CCOc1ccc2c(=O)c3cc(F)c(OCCN(CC)CC)cc3[nH]c2c1" has selectivity ratio at or above 1000?
Result block: 1 (yes)
